Target: hMC1-R (Homo sapiens)
Construct: expressed in transfected cells; host or cells: CHO-K1
Sequence (Q01726 whole entry): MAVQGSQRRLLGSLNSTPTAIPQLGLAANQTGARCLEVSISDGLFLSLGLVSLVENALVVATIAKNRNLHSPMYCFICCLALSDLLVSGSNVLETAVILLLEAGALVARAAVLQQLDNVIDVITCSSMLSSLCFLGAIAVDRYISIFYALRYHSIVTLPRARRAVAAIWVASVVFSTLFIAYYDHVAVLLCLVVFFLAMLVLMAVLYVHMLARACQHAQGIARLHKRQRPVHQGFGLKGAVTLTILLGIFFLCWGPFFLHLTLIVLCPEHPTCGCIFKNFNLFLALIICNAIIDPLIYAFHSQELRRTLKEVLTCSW
Test: cyclic AMP bioassay (ECL) in CHO-K1 cells
Assay type: cell-based
testReadout: pEC50
// field semantics: pEC50 = negative decimal log of concentration (mol/L)

As a guide, the following entries are already answered.
sampleSmiles: C[C@H]1NC(=O)[C@@H](NC(=O)CN2C(=O)CNC2=O)CSSC[C@@H](C(N)=O)NC(=O)[C@H](Cc2c[nH]c3ccccc23)NC(=O)[C@H](CCCNC(=N)N)NC(=O)[C@@H](Cc2ccccc2)NC(=O)[C@H](Cc2cnc[nH]2)NC1=O
pEC50: 7.85

sampleSmiles: CC(=O)N[C@@H](CCCNC(=N)N)C(=O)N[C@H]1CSSC(C)(C)[C@@H](C(N)=O)NC(=O)[C@H](Cc2c[nH]c3ccccc23)NC(=O)[C@H](CCCNC(=N)N)NC(=O)[C@@H](Cc2ccccc2)NC(=O)[C@H](Cc2c[nH]cn2)NC(=O)[C@@H](C)NC1=O
pEC50: 7.32

sampleSmiles: CCCC[C@H](NC(C)=O)C(=O)N[C@H]1CSSC(C)(C)[C@@H](C(N)=O)NC(=O)[C@H](Cc2c[nH]c3ccccc23)NC(=O)[C@H](CCCNC(=N)N)NC(=O)[C@@H](Cc2ccccc2)NC(=O)[C@H](Cc2c[nH]cn2)NC(=O)[C@@H](C)NC1=O
pEC50: 7.84

sampleSmiles: CCCC[C@H](NC(C)=O)C(=O)N[C@H]1CSSC[C@@H](C(N)=O)NC(=O)[C@H](Cc2c[nH]c3ccccc23)NC(=O)[C@H](CCCNC(=N)N)NC(=O)[C@@H](Cc2ccc3ccccc3c2)NC(=O)[C@H](Cc2c[nH]cn2)NC(=O)[C@@H](C)NC1=O
pEC50: 7.75

sampleSmiles: CCCC[C@H](NC(C)=O)C(=O)N[C@H]1CSSC[C@@H](C(N)=O)NC(=O)[C@H](Cc2c[nH]c3ccccc23)NC(=O)[C@H](CCCNC(=N)N)NC(=O)[C@@H](Cc2ccccc2)NC(=O)[C@H](Cc2c[nH]cn2)NC(=O)[C@@H](C)NC1=O
pEC50: 8.62

sampleSmiles: C[C@H]1NC(=O)[C@@H](NC(=O)CN2C(=O)N[C@@H](CCCNC(=N)N)C2=O)CSSC[C@@H](C(N)=O)NC(=O)[C@H](Cc2c[nH]c3ccccc23)NC(=O)[C@H](CCCNC(=N)N)NC(=O)[C@@H](Cc2ccccc2)NC(=O)[C@H](Cc2cnc[nH]2)NC1=O
pEC50: 8.06

Now let's try a different one.
stdin: Give the measured pEC50 for "CC(=O)N[C@H](CCCNC(=N)N)C(=O)N[C@H]1CSSC(C)(C)[C@@H](C(N)=O)NC(=O)[C@H](Cc2c[nH]c3ccccc23)NC(=O)[C@H](CCCNC(=N)N)NC(=O)[C@@H](Cc2ccccc2)NC(=O)[C@H](Cc2c[nH]cn2)NC(=O)[C@@H](C)NC1=O"
stdout: 7.58
